- Measurement Target: T1, hCEACAM5, human CEACAM5 ECD (35-685) (human, UniProt P06731 35-685)
- T1 construct: produced in HEK293; also called human CEACAM5 protein; human CEACAM5 extracellular domain
- T1 sequence: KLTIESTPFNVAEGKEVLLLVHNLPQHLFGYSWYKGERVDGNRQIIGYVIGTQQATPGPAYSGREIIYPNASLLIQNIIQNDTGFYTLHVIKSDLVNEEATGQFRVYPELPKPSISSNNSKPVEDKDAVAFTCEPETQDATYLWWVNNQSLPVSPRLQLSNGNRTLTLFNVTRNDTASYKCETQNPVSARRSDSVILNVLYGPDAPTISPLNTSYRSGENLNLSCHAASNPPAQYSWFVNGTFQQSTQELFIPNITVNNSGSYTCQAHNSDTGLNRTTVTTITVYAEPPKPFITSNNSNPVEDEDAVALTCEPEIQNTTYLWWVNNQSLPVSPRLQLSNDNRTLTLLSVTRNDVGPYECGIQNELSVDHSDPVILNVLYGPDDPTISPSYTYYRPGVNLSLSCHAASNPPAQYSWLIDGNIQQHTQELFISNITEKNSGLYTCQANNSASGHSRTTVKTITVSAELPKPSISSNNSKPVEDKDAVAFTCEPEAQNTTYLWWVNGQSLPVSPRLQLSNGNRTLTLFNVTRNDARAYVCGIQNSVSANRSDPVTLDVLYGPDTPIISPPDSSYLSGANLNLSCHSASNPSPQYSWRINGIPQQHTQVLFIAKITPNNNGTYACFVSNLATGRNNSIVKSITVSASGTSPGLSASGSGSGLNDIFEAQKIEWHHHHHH
- Assay Name: ELISA, chimeric mAb
pEC50: −log10 of the molar value.
Assay Endpoint: pEC50

- chMab2K52R (antibody, human IgG1, kappa, V domains shown, Chimeric MAb2 with K52R in CDR2-L) VH: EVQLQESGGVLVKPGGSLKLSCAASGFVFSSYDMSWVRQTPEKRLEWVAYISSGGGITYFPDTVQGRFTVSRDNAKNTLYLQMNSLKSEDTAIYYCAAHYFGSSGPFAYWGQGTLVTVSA VL: DIQMTQSPASLSASVGETVTITCRASENIFSYLAWYQQKQGKSPQLLVYNTRTLAEGVPSRFSGSGSGTQFSLKINSLQPEDFGSYYCQHHYGTPFTFGSGTKLEIKR: 9.96

Values compiled from patent US20220340682A1.
